Target: IRAK4 (Homo sapiens)
Construct: endogenous in cells; host or cells: Karpas299
Sequence (Q9NWZ3 whole entry): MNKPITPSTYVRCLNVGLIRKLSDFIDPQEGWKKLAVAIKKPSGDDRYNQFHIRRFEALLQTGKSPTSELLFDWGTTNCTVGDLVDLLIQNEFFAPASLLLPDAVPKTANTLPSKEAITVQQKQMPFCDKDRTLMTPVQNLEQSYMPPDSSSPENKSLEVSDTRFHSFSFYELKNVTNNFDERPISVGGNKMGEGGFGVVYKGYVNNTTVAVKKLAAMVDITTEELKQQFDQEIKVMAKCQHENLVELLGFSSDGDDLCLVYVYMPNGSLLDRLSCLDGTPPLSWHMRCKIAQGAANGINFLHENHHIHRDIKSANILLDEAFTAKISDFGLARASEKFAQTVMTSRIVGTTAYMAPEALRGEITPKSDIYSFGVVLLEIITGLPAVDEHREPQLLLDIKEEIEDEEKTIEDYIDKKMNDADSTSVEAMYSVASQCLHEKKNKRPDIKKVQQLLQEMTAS
Assay: IRAK4 Degradation Assay with Human Serum (Karpas299, HTRF/TR-FRET)
Type: cell-based
Conditions: Karpas-299 in human serum, 24 hrs treatment; read-out: IRAK4 degradtion with human serum assay DC50
quantity: DC50 (nM)

Please review the following examples before continuing.
COC[C@@H]1CN(C2CCN(c3ccc(C4CCC(=O)NC4=O)nc3C)CC2)CCN1[C@H]1CC[C@H](n2cc3cc(NC(=O)c4ccc5cc(C#N)cnn45)c(C(C)(C)O)cc3n2)CC1 (stereo partly drawn): 3
CC(C)(O)c1cc2nn([C@H]3CC[C@H](N4CCN(CCNc5cccc6c5C(=O)N(C5CCC(=O)NC5=O)C6=O)CC4)CC3)cc2cc1NC(=O)c1ccc2cc(C#N)cnn12 (stereo partly drawn): 9.4

I = COc1cc(N2CC(C(=O)N3CCN([C@H]4CC[C@H](n5cc6cc(NC(=O)c7ccc8cc(C#N)cnn78)c(C(C)(C)O)cc6n5)CC4)CC3)C2)cc(F)c1N1CCC(=O)NC1=O
II = COC[C@H]1CN([C@H]2CC[C@H](n3cc4cc(NC(=O)c5ccc6cc(C#N)cnn56)c(C(C)(C)O)cc4n3)CC2)CCN1C1CN(c2cc(F)c([C@H]3CCC(=O)NC3=O)c(F)c2)C1
Name the one with the greater DC50 value, either I or II as given. Give the chosen item's label as your response.
II
(II: 39 nM, I: 7 nM)

1 = CC(C)(O)c1cc2nn([C@H]3CC[C@H](N4CCN(CC5CCN(c6ccc7c(c6)CN(C6CCC(=O)NC6=O)C7=O)CC5)CC4)CC3)cc2cc1NC(=O)c1ccc2cc(C#N)cnn12 (stereo partly drawn)
2 = CC(C)(O)c1cc2nn([C@H]3CC[C@H](N4CCN([C@H]5C[C@H](c6ccc(N[C@@H]7CCC(=O)NC7=O)cc6)C5)CC4)CC3)cc2cc1NC(=O)c1ccc2cc(C#N)cnn12
Hello, I am sorting some records. Could you say if 1 or 2 has the smaller DC50 value? Give the chosen item's label as your response.
1
(1: 3.5 nM, 2: 19 nM)

A = CC(C)(O)c1cc2nn([C@H]3CC[C@H](N4CCN(C(=O)C5CN(c6cc(F)c(N7CCC(=O)NC7=O)c(F)c6)C5)CC4)CC3)cc2cc1NC(=O)c1ccc2cc(C#N)cnn12
B = CC(C)(O)c1cc2nn([C@H]3CC[C@H](N4CCN(C[C@H]5C[C@H](c6cc(F)c([C@H]7CCC(=O)NC7=O)c(F)c6)C5)CC4)CC3)cc2cc1NC(=O)c1ccc2cc(C#N)cnn12
Name the one with the greater DC50 value, either A or B as given. Give the chosen item's label as your response.
A
